Data provenance: patent WO2016087994A1

assay: Brain and CSF pharmacokinetics in Sprague-Dawley rats; type: in vivo; conditions: rat, csf; 5 and 30 mg/kg/day oral gavage; read-out: CSF concentration relative to plasma
measure: Kp at 0.5 h

Memo: `CC#CC(=O)N1CCC[C@H]1c1nc(-c2ccc(C(=O)Nc3ccccn3)cc2)c2c(N)nccn12` , reported Kp at 0.5 h: 0.01 to 0.02

---

test: Brain and CSF pharmacokinetics in Sprague-Dawley rats; type: in vivo; settings: rat, brain; flushed brains; 5 or 30 mg/kg/day oral gavage, 30 min after dosing; read-out: brain concentration relative to matched plasma
measure: Kp at 0.5 h

// Kp at 0.5 h lookup, molecule = `CC#CC(=O)N1CCC[C@H]1c1nc(-c2ccc(C(=O)Nc3ccccn3)cc2)c2c(N)nccn12` , result: 0.03 to 0.04
